Recorded values, source patent US11851449B2.

target: RORγt (Homo sapiens, UniProt P51449); experiment: Cofactor recruitment test (Alpha Screen, biotinylated SRC-1 peptide); type: biochemical; conditions: read-out: signal value inhibitory rate (%) at test compound 1 μM
Sequence (P51449 1-497 isoform P51449-2, species assumed): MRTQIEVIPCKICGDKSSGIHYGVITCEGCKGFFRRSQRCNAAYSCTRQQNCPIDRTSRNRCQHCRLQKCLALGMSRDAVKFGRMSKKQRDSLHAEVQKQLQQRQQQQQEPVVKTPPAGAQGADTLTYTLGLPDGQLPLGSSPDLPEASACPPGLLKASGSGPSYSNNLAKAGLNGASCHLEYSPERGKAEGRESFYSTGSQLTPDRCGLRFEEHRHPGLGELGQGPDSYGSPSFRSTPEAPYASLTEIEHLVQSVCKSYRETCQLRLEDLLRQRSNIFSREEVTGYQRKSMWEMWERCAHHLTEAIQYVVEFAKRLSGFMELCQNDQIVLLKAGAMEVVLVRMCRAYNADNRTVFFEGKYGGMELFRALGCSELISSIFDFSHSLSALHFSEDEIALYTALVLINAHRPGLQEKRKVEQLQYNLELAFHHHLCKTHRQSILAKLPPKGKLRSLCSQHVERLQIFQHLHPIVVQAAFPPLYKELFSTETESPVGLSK
Quick reference: inhibition at 1 µM of the listed items.
observation type: inhibition at 1 µM (%)

- COCc1ccc([C@H](C(=O)Nc2cc(F)c([Si](C)(C)C)c(F)c2)N(C)C(=O)c2cc(O)no2)cc1: 97.3
- COCc1ccc([C@@H](NC(=O)N2CC(O)C2)C(=O)Nc2ccc([Si](C)(C)C)c(F)c2)cc1: 96.8
- CCC(=O)N[C@@H](C(=O)Nc1ccc([Si](C)(C)C)c(F)c1)c1ccc(COC)cc1: 93
- COCc1ccc([C@@H](NC(=O)Cn2ccc(=O)[nH]c2=O)C(=O)Nc2ccc([Si](C)(C)C)c(F)c2)cc1: 96
- C[Si](C)(C)c1ccc(NC(=O)C(NC(=O)c2cc(O)no2)C2CCC(F)(F)CC2)cc1F (stereo not shown): 78.8
- CC(C)(C)c1ccc(NC(=O)[C@H](NC(=O)[C@@H]2CNC(=O)C2)C2CCC(F)(F)CC2)cc1F: 56.9
- COCc1ccc([C@@H](NC(=O)C2CNC(=O)C2)C(=O)Nc2ccc(CC(C)(C)C)c(F)c2)cc1 (stereo in doubt): 71.6
